Below is a list of entries, each paired with its recorded pKi value.
# subjectOfTest: serotonin reuptake sites (Rattus norvegicus)
# Sequence (P31652 whole entry): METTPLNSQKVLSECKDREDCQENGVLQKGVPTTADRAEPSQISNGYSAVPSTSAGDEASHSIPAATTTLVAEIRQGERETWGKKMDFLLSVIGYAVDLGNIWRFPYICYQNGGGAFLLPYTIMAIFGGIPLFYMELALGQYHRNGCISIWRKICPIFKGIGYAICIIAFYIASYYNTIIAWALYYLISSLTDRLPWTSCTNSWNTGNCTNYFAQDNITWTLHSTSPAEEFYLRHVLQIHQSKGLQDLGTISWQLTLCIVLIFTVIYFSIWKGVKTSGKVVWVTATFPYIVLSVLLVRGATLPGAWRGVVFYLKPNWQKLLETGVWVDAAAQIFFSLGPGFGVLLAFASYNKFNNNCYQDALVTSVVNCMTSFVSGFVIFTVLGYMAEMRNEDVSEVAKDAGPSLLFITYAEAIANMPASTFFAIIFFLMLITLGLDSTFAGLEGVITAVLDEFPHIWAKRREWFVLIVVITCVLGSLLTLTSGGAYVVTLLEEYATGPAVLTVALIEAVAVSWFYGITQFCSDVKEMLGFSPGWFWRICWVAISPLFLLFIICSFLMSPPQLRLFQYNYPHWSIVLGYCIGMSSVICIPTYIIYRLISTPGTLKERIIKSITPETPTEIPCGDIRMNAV
# measurementProtocol: In vitro affinity for serotonin reuptake sites ([3H]-paroxetine receptor binding assay)
# statedConditions: average values from three independent experiments; read-out: in vitro affinity 5-HT reuptake binding Ki
pKi is defined as minus the log10 of a concentration measured in mol/L.

molecule	pKi
Clc1ccc2[nH]cc(CCCN3CCN(c4cccc5c4OCCO5)CC3)c2c1 [Compound 5j]	8.85

Now consider the entry below.
Input line: Determine its reported pKi: Cc1ccc2[nH]cc(CCCN3CCN(c4cccc5c4OCCO5)CC3)c2c1 [Compound 5m]
Output line: 8.89

* * *

# Test system: dopamine D2 receptors
# measurementProtocol: Antagonism of apomorphine-induced climbing behaviour in mice (APO-climb)
# statedConditions: Mus musculus, po, read-out: in vivo activity Dopamine-D2 APO-climb* ED50 mg/kg po
parameterMeasured: ED50 (mg/kg)
Please state the figure in mg/kg; there is no need to write the unit.

Worked examples, 3 compounds total:
Fc1ccc2c(CCCN3CCN(c4cccc5c4OCCO5)CC3)c[nH]c2c1 9
Fc1cccc2[nH]cc(CCCN3CCN(c4cccc5c4OCCO5)CC3)c12 13
c1cc2c(c(N3CCN(CCCc4c[nH]c5ccccc45)CC3)c1)OCCO2 10

Input line: Fill in ED50 for Clc1ccc2c(CCCN3CCN(c4cccc5c4OCCO5)CC3)c[nH]c2c1 tested with dopamine D2 receptors.
Output line: 4.5

* * *

# subjectOfTest: dopamine-D2 receptors (Rattus norvegicus)
# Construct: labels dopamine receptors in rat pituitary and brain
# Sequence (P61169 whole entry): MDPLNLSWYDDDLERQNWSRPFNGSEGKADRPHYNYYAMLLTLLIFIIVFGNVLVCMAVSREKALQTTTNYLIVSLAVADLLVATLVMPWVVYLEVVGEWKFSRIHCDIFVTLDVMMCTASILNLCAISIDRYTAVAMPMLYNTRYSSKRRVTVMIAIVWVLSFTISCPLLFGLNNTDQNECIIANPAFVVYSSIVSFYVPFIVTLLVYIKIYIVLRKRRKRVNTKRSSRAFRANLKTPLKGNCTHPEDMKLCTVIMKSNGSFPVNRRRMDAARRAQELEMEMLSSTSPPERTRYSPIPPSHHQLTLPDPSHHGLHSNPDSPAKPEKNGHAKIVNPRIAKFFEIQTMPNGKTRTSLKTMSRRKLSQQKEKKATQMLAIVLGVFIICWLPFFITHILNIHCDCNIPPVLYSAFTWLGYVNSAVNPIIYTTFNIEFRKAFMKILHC
# measurementProtocol: In vitro affinity for dopamine-D2 receptors ([3H]-spiroperidol receptor binding assay)
# statedConditions: average values from three independent experiments
Below is a list of entries, each paired with its recorded pKi value.
pKi is defined as minus the log10 of a concentration measured in mol/L.

Clc1cccc2c(CCCN3CCN(c4cccc5c4OCCO5)CC3)c[nH]c12 7.81
Clc1cccc2[nH]cc(CCCN3CCN(c4cccc5c4OCCO5)CC3)c12 7.62
Clc1ccc2[nH]cc(CCCN3CCN(c4cccc5c4OCCO5)CC3)c2c1 7.50

Input line: Determine its reported pKi: Fc1cccc2[nH]cc(CCCN3CCN(c4cccc5c4OCCO5)CC3)c12
Output line: 8.09

Input line: Determine its reported pKi: Cc1cccc2c(CCCN3CCN(c4cccc5c4OCCO5)CC3)c[nH]c12
Output line: 7.80

Input line: Determine its reported pKi: c1cc2c(c(N3CCN(CCCc4c[nH]c5ccccc45)CC3)c1)CCCO2
Output line: 7.69

Input line: Determine its reported pKi: c1cc2c(c(N3CCN(CCCc4c[nH]c5ccccc45)CC3)c1)OCCO2
Output line: 7.68

* * *

Where a name gives a salt, the structure may show the parent alone.
parameterMeasured: melting point

Worked examples, 5 compounds total:
compound	parameterMeasured	result
Fc1ccc2c(CCCN3CCN(c4cccc5c4OCCO5)CC3)c[nH]c2c1 (as salt: fumaric acid salt)	melting point	205 to 206 °C
Fc1cccc2[nH]cc(CCCN3CCN(c4cccc5c4OCCO5)CC3)c12	melting point	207 to 208 °C
c1cc2c(c(N3CCN(Cc4c[nH]c5ccccc45)CC3)c1)OCCO2	melting point	85 to 86 °C
Cc1ccc2[nH]cc(CCCN3CCN(c4cccc5c4OCCO5)CC3)c2c1 (as salt: fumaric acid salt)	melting point	215 to 217 °C (dec.)
Clc1ccc2[nH]cc(CCCN3CCN(c4cccc5c4OCCO5)CC3)c2c1 (as salt: fumaric acid salt)	melting point	61 to 63 °C

Now consider the entry below.
Input line: Determine its reported melting point: c1cc2c(c(N3CCN(CCCc4c[nH]c5ccccc45)CC3)c1)OCCO2
Output line: 150 to 152 °C

* * *

# subjectOfTest: dopamine-D2 receptors (Rattus norvegicus)
# Construct: labels dopamine receptors in rat pituitary and brain
# measurementProtocol: In vitro affinity for dopamine-D2 receptors ([3H]-spiroperidol receptor binding assay)
# statedConditions: average values from three independent experiments
parameterMeasured: pKi
pKi is defined as minus the log10 of a concentration measured in mol/L.

Worked examples, 3 compounds total:
compound	parameterMeasured	result
c1cc2c(c(N3CCN(CCCCCc4c[nH]c5ccccc45)CC3)c1)OCCO2 [Compound 5c]	pKi	8.04
Clc1ccc2c(CCCN3CCN(c4cccc5c4OCCO5)CC3)c[nH]c2c1 [Compound 5k]	pKi	8.68
Fc1ccc2[nH]cc(CCCN3CCN(c4cccc5c4OCCO5)CC3)c2c1 [Compound 5e]	pKi	7.72

Input line: Determine its reported pKi: Fc1cccc2c(CCCN3CCN(c4cccc5c4OCCO5)CC3)c[nH]c12 [Compound 5g]
Output line: 7.97

Input line: Determine its reported pKi: COc1ccc2[nH]cc(CCCN3CCN(c4cccc5c4OCCO5)CC3)c2c1 [Compound 5h]
Output line: 8.30
